ASSAY_SUMMARY: MTT viability assay after treatment with Fluc mRNA/amino lipidated peptoid formulations
Format: cell-based
CONDITION_SUMMARY: human, HeLa cells, Relative Viability (%) No PEG
Exercise: for every item that follows, state its recorded viability at 8 h, 500 ng/well.
One number for each entry, in %.

Some molecules with known viability at 8 h, 500 ng/well results, for comparison:
CHEMICAL_STRUCTURE	READING
CCCCCCCCCCN(CC(N)=O)C(=O)CN(CCCCCCCCCC)C(=O)CN(CCc1ccccc1)C(=O)CN(CCc1ccccc1)C(=O)CN(CCN)C(=O)CN(CCc1ccccc1)C(=O)CN(CCc1ccccc1)C(=O)CNCCN	101
CCCCCCCCCCN(CC(N)=O)C(=O)CN(CCCCCCCCCC)C(=O)CN(CCCCCCCCCC)C(=O)CN(CCCCCCCCCC)C(=O)CN(CCCCCCCCCC)C(=O)CN(CCc1ccccc1)C(=O)CN(CCc1ccccc1)C(=O)CN(CCN)C(=O)CN(CCc1ccccc1)C(=O)CN(CCc1ccccc1)C(=O)CNCCN	87.1
CCCCCCCCCCCCN(CC(N)=O)C(=O)CN(CCCCCCCCCCCC)C(=O)CN(CCc1ccc(OC)cc1)C(=O)CN(CCc1ccc(OC)cc1)C(=O)CN(CCN)C(=O)CN(CCc1ccc(OC)cc1)C(=O)CN(CCc1ccc(OC)cc1)C(=O)CN(CCN)C(=O)CN(CCc1ccc(OC)cc1)C(=O)CN(CCc1ccc(OC)cc1)C(=O)CNCCN	90.4
CCCCCCCCCCN(CC(N)=O)C(=O)CN(CCCCCCCCCC)C(=O)CN(CCCCCCCCCC)C(=O)CN(CCCCCCCCCC)C(=O)CN(CCc1ccccc1)C(=O)CN(CCc1ccccc1)C(=O)CN(CCCN)C(=O)CN(CCc1ccccc1)C(=O)CN(CCc1ccccc1)C(=O)CN(CCCN)C(=O)CN(CCc1ccccc1)C(=O)CN(CCc1ccccc1)C(=O)CNCCCN	85.4
CCCCCCCCCCN(CC(N)=O)C(=O)CN(CCCCCCCCCC)C(=O)CN(CCCCCCCCCC)C(=O)CN(CCCCCCCCCC)C(=O)CN(CCCCCCCCCC)C(=O)CN(CCCCCCCCCC)C(=O)CN(CCCCCCCCCC)C(=O)CN(CCc1ccccc1)C(=O)CN(CCc1ccccc1)C(=O)CN(CCN)C(=O)CN(CCc1ccccc1)C(=O)CN(CCc1ccccc1)C(=O)CN(CCN)C(=O)CN(CCc1ccccc1)C(=O)CN(CCc1ccccc1)C(=O)CNCCN	108

Let us examine a further case.
Reported viability at 8 h, 500 ng/well of `CCCCCCCCCCN(CC(N)=O)C(=O)CN(CCCCCCCCCC)C(=O)CN(CCc1ccccc1)C(=O)CN(CCc1ccccc1)C(=O)CNCCN` : 99.3
